- Target under test: UniProtKB O95931
- Sequence (O95931 11-69): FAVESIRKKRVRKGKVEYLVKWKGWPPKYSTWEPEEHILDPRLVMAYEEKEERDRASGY
pIC50: −log10 of the molar value.
Label rule, in plain words: pIC50 of 5 and up is condition met, under 5 is condition not met.

INSERT INTO measurements (molecule, qualitative_label) VALUES
  ('CN1CCN(CCNC(=O)Cc2cnc(NC(=O)Nc3cccnc3)s2)CC1', 'condition not met'),
  ('O=C(CC1SCC(C(=O)N/N=C/c2cccnc2)NC1=O)Nc1ccc(N2CCCC2)cc1 (centres unmarked)', 'condition not met'),
  ('CN1CCN(c2ccc(NC(=O)c3cc(-c4ccco4)nc4ccccc34)cc2)CC1', 'condition not met'),
  ('O=C(CC1S/C(=N/N=C/c2ccc(O)c(O)c2O)NC1=O)Nc1ccc(N2CCCC2)cc1 (centres unmarked) [ACV-17(4)]', 'condition met'),
  ('COc1ccc(NC(=O)CC2S/C(=N/N=C/c3cccnc3)NC2=O)cc1OC (centres unmarked)', 'condition not met'),
  ('O=C(CC1S/C(=N/N=C/c2ccc(O)c(O)c2O)NC1=O)Nc1ccc(N2CCCC2)cc1 (centres unmarked) [ACV-17* (P2)]', 'condition met'),
  ('NC(=S)N/N=C/c1ccc(O)c(O)c1O', 'condition met');
